- assay.target: NHERF2_2, Q15599
- Sequence (Q15599 142-238): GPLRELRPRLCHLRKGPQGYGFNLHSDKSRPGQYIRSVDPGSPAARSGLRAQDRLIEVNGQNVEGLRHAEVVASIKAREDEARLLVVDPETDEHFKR
- experiment.notes: holdup assay
- Design: key: below the threshold = too weak to quantify, mostly under pKd 3.1 to 4
- condition.label: plain residues with an end cap or a label only (N-terminal biotin on a linker: ado-ado)
value.type: pKd

- KPGKGSETVV [FZD4, Q9ULV1]: below the threshold
- MHIQEKGFHV [EPHA6, Q9UF33]: below the threshold
- GTGYDRKDYV [CLDN3, O15551]: 3.6
